// data source = ChEMBL document CHEMBL4610060

# method: Permeability across basolateral to apical side in human Caco2 cells
# Format: ADME, cell-based
# measurement.context: Caco-2, read-out: permeability
Measured Papp B→A values are reported for all entries that follow.
Quick reminder: number only, in ×10⁻⁶ cm/s, skip the unit.

The cases that follow already have their Papp B→A on record.
{"test.smiles": "CCOC(=O)[C@H]1CCCC[C@H](NC(=O)/C=C/c2cc(Cl)ccc2-n2cnnn2)c2cc(ccn2)-c2ccc(NC(=O)OC)cc2N1", "observed.value": 10.1}
{"test.smiles": "O=C(/C=C/c1cc(Cl)ccc1-n1cnnn1)N[C@H]1CCCCC(=O)Nc2ccccc2-c2c[nH]c1n2", "observed.value": 20.5}
{"test.smiles": "CCOC(=O)[C@H]1CCCC[C@H](NC(=O)/C=C/c2cc(Cl)ccc2-n2cnnn2)c2nc(c[nH]2)-c2ccc(NC(=O)OC)cc2N1", "observed.value": 13.3}
{"test.smiles": "COC(=O)Nc1ccc2c(c1)N[C@@H](C(=O)OC)CCCC[C@H](NC(=O)/C=C/c1cc(Cl)ccc1-n1cnnn1)c1nc-2c[nH]1", "observed.value": 10.3}
{"test.smiles": "COC(=O)Nc1ccc2c(c1)N[C@@H](C(=O)OC)CCCC[C@H](NC(=O)/C=C/c1cc(Cl)ccc1-n1cnnn1)c1cc-2ccn1", "observed.value": 21.3}

Q: Name the recorded Papp B→A for COC(=O)Nc1ccc2c(c1)NC(=O)CCCC[C@H](NC(=O)/C=C/c1cc(Cl)ccc1-n1cnnn1)c1nc-2c[nH]1 .
A: 6.7
